Species: Cavia porcellus
PROTOCOL DETAILS: Concentration required to produce 30% reduction from the initial beat rates in isolated guinea pig right atria.
Type: functional
PARAMETER: EC30 (nM)

INSERT INTO results (compound, quantity_unit, readout_number) VALUES
  ('COc1cc2c(cc1OC)CN(C(=O)CCN1CCC(CCCOc3ccc4c(c3)OCO4)CC1)CC2', 'nM', 620),
  ('COc1cc2c(cc1OC)CN(C(=O)CCN1CCCC(COc3ccc4c(c3)OCO4)C1)CC2 (configuration not stated)', 'nM', 170),
  ('COc1cc2c(cc1OC)CN(C(=O)C1CCCN(CCCOc3ccc4c(c3)OCO4)C1)CC2 (configuration not stated)', 'nM', 370),
  ('COc1cc2c(cc1OC)CN(C(=O)CCN1CCCC(Oc3ccc4c(c3)OCO4)C1)CC2 (configuration not stated)', 'nM', 3030),
  ('COc1cc2c(cc1OC)CN(C(=O)CCN1CCC(Oc3ccc4c(c3)OCO4)CC1)CC2', 'nM', 440),
  ('COc1cc2c(cc1OC)CN(C(=O)CN1CCCC(COc3ccc4c(c3)OCO4)C1)CC2 (configuration not stated)', 'nM', 1170),
  ('COc1cc2c(cc1OC)CN(C(=O)CCCN1CCCC(COc3ccc4c(c3)OCO4)C1)CC2 (configuration not stated)', 'nM', 850),
  ('COc1cc2c(cc1OC)CN(C(=O)CCN1CCCC(CCOc3ccc4c(c3)OCO4)C1)CC2 (configuration not stated)', 'nM', 340),
  ('COc1ccc(CCN(C)CCCN2CCc3cc(OC)c(OC)cc3CC2=O)cc1OC', 'nM', 260),
  ('COc1cc2c(cc1OC)CN(C(=O)CCN1CCCC(CCCOc3ccc4c(c3)OCO4)C1)CC2 (configuration not stated)', 'nM', 390),
  ('COc1cc2c(cc1OC)CN(C(=O)CCN1CCC(COc3ccc4c(c3)OCO4)CC1)CC2', 'nM', 470),
  ('COc1cc2c(cc1OC)CN(C(=O)CCN1CCC(CCOc3ccc4c(c3)OCO4)CC1)CC2', 'nM', 450);
